TARGET OR SYSTEM: T1, human hepcidin-25 (human, not fully specified)
T1 construct: also called human mature hepcidin
T1 peptide: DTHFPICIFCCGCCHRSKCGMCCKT
ASSAY OVERVIEW: SPR (BIAcore), Fab captured on goat anti-human kappa, human hepcidin-25 injected, 25 C

{"BINDER": "Fab 3.12 (Fab, V domains shown, Fab with human kappa, from E. coli periplasm; frameworks O2 and VH1-69) VH: QVQLVQSGAEVKKPGSSVKVSCKASGYTFLIYPISWVRQAPGQGLEWMGNFHPYLGVTNYLEKFKGRVTITADKSTSTAYMELSSLRSEDTAVYYCARGGTGSFDYWGQGTTVTVSS VL: DIQMTQSPSSLSASVGDRVTITCSASSRVSSTYLFWYQQKPGKAPKLLIYRTSTLTSGVPSRFSGSGSGTDFTLTISSLQPEDFATYYCQQWSGYPFVFGGGTKVEIK", "koff [s⁻¹]": 0.000347}
{"BINDER": "Fab 3.23 (Fab, V domains shown, Fab with human kappa, from E. coli periplasm; frameworks O2 and VH1-69) VH: QVQLVQSGAEVKKPGSSVKVSCKASGYTFLIYPISWVRQAPGQGLEWMGNFHPYLGVTNYVEKFKGRVTITADKSTSTAYMELSSLRSEDTAVYYCARGGTGSFDYWGQGTTVTVSS VL: DIQMTQSPSSLSASVGDRVTITCSASSRVSSTYLFWYQQKPGKAPKLLIYRTSPLASGVPSRFSGSGSGTDFTLTISSLQPEDFATYYCQQWSGYPFVFGGGTKVEIK", "koff [s⁻¹]": 0.000278}
{"BINDER": "Fab 1.7 (Fab, V domains shown, Fab with human kappa) VH: QVQLVQSGAEVKKPGSSVKVSCKASGYTFTIYPISWVRQAPGQGLEWMGNFHPYLGDTRYVEKFKGRVTITADKSTSTAYMELSSLRSEDTAVYYCARGGTGSFDYWGQGTTVTVSS VL: DIQMTQSPSSLSASVGDRVTITCSASSRVSSTYLFWYQQKPGKAPKLLIYRTSTLVSGVPSRFSGSGSGTDFTLTISSLQPEDFATYYCQQWSGYPFVFGGGTKVEIK", "koff [s⁻¹]": 0.00148}
{"BINDER": "Fab Hu22 (Fab, V domains shown, Fab with human kappa, from E. coli periplasm; frameworks O2 and VH1-69) VH: QVQLVQSGAEVKKPGSSVKVSCKASGYTFTIYPISWVRQAPGQGLEWMGNFHPYLGDTNYNEKFKGRVTITADKSTSTAYMELSSLRSEDTAVYYCARGGTGSFDYWGQGTTVTVSS VL: DIQMTQSPSSLSASVGDRVTITCSASSRVSSTYLFWYQQKPGKAPKLLIYRTSTLASGVPSRFSGSGSGTDFTLTISSLQPEDFATYYCQQWSGYPFTFGGGTKVEIK", "koff [s⁻¹]": 0.00456}
